System: Phytophthora infestans
Assay: whole plant or invertebrate
Assay type: in vivo
Settings: 250 ppm; tomato seedlings; 100 = 100% disease control, 0 = no control
measured.property: Test D disease control rating

Solved cases (4 shown):
Cc1ccc(S(=O)(=O)Oc2cnn(C)c(=O)c2C(=O)Nc2ccc(OC(F)(F)F)cc2)cc1 46%
Cc1ccc(NC(=O)c2c(O)cnn(C)c2=O)cc1 93%
Cc1cccc(NC(=O)c2c(OS(C)(=O)=O)cnn(C)c2=O)c1 33%
COC(=O)c1ccc(NC(=O)c2c(O)cnn(C)c2=O)cc1 99%

Shift focus to the following entry.
Please list Test D disease control rating recorded for the molecule Cn1ncc(OC/C=C/c2ccccc2)c(C(=O)Nc2ccc(OC(F)(F)F)cc2)c1=O 17%

---

Test system: Phytophthora infestans
Test: whole plant or invertebrate
Type: in vivo
Settings: 250 ppm; tomato seedlings; 100 = 100% disease control, 0 = no control
Item-by-item account of Test D disease control rating
Please answer in the form of a number followed by its unit of measurement.

Solved cases (2 shown):
Cn1ncc(O)c(C(=O)Nc2ccc(F)cc2F)c1=O 99%
Cn1ncc(OS(C)(=O)=O)c(C(=O)Nc2ccc(F)cc2)c1=O 9%

Please list Test D disease control rating recorded for the molecule Cn1ncc(Cl)c(C(=O)Nc2ccc(Br)cc2)c1=O 68%

Please list Test D disease control rating recorded for the molecule COc1cccc(NC(=O)c2c(O)cnn(C)c2=O)c1 0%

Please list Test D disease control rating recorded for the molecule Cn1ncc(Cl)c(C(=O)Nc2ccccc2-c2ccc(Cl)cc2)c1=O 0%

Please list Test D disease control rating recorded for the molecule Cn1ncc(OS(C)(=O)=O)c(C(=O)Nc2ccc(C(F)(F)F)cc2F)c1=O 26%
